Source listed as ChEMBL document CHEMBL5325438.

PROCEDURE_SUMMARY: Stability of compound in PBS buffer assessed as parent compound remaining at pH 2.0 incubated for 24 hrs by UV/Vis spectroscopic analysis
Type: physicochemical
CONDITION_NOTES: read-out: Stability
Square brackets hold non-standard residues; d marks the D form. Peptide text beside a SMILES is read from it. Cav = NC(N)=NOCC[C@H](N)C(=O)O

# MOLECULE, UNIT_OF_MEASURE, remaining at 24 h
rows = [
    ("CC[C@H](C)[C@H](NC(=O)[C@H](Cc1ccc(O)cc1)NC(=O)[C@@H]1CCCN1C(=O)[C@H](CCON=C(N)N)NC(=O)[C@@H](N)CCCN=C(N)N)C(=O)N[C@@H](CC(C)C)C(=O)O", "%", 100),
    ("CC[C@H](C)[C@H](NC(=O)[C@H](Cc1ccc(O)cc1)NC(=O)[C@@H]1CCCN1C(=O)[C@H](CCCNC(=N)N)NC(=O)[C@@H](N)CCCNC(=N)N)C(=O)N[C@@H](CC(C)C)C(=O)O", "%", 100),
    ("CC[C@H](C)[C@H](NC(=O)[C@H](Cc1ccc(O)cc1)NC(=O)[C@@H]1CCCN1C(=O)[C@H](CCON=C(N)N)NC(=O)[C@@H](N)CCCCN)C(=O)N[C@@H](CC(C)C)C(=O)O (H-K[Cav]PYIL-OH)", "%", 100),
]

###

PROCEDURE_SUMMARY: Permeability of compound in PBS buffer at pH 7.4 at 100 uM incubated for 4 hrs by PAMPA-BBB assay
Type: ADME
CONDITION_NOTES: read-out: permeability
Square brackets hold non-standard residues; d marks the D form. Peptide text beside a SMILES is read from it. Cav = NC(N)=NOCC[C@H](N)C(=O)O
Papp at 4 h, 100 µM values, listed per item

# COMPOUND, Papp at 4 h, 100 µM, ×10⁻⁶ cm/s
rows = [
    ("CC[C@H](C)[C@H](NC(=O)[C@H](Cc1ccc(O)cc1)NC(=O)[C@@H]1CCCN1C(=O)[C@H](CCON=C(N)N)NC(=O)[C@@H](N)CCCCN)C(=O)N[C@@H](CC(C)C)C(=O)O (H-K[Cav]PYIL-OH)", 2.81),
    ("CC[C@H](C)[C@H](NC(=O)[C@H](Cc1ccc(O)cc1)NC(=O)[C@@H]1CCCN1C(=O)[C@H](CCCNC(=N)N)NC(=O)[C@@H](N)CCCNC(=N)N)C(=O)N[C@@H](CC(C)C)C(=O)O", 0.64),
    ("CC[C@H](C)[C@H](NC(=O)[C@H](Cc1ccc(O)cc1)NC(=O)[C@@H]1CCCN1C(=O)[C@H](CCON=C(N)N)NC(=O)[C@@H](N)CCCN=C(N)N)C(=O)N[C@@H](CC(C)C)C(=O)O", 0.89),
]

###

TARGET_ENTITY: UniProt P30989
Sequence (P30989 whole entry): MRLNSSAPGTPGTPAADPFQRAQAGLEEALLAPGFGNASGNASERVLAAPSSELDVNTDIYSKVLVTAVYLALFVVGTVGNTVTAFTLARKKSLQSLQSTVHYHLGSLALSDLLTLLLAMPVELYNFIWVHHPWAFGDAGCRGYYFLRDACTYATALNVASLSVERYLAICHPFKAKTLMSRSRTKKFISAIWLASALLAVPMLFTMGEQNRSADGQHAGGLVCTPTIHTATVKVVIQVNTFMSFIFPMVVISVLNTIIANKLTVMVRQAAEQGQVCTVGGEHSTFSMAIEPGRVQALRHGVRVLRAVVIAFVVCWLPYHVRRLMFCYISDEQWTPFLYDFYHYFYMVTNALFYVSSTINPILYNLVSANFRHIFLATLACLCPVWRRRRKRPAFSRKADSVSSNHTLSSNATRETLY
pKd: −log10 of the molar value. Square brackets hold non-standard residues; d marks the D form. Peptide text beside a SMILES is read from it. * marks the point of attachment. Tle = CC(C)(C)[C@H](N)C(=O)O; X1 = C[C@@H](CCCCN)C(=O)*

# COMPOUND, pKd
records = [
    ("CC(C)C[C@H](NC(=O)[C@@H](NC(=O)[C@H](Cc1ccc(O)cc1)NC(=O)[C@@H]1CCCN1C(=O)[C@H](CCCNC(=N)N)NC(=O)[C@@H](C)CCCCN)C(C)(C)C)C(=O)O (X1-RPY[Tle]L-OH)", 8.24),
]
